Target Or Test System: UniProt:Q9Y5Y9
Sequence (Q9Y5Y9 whole entry): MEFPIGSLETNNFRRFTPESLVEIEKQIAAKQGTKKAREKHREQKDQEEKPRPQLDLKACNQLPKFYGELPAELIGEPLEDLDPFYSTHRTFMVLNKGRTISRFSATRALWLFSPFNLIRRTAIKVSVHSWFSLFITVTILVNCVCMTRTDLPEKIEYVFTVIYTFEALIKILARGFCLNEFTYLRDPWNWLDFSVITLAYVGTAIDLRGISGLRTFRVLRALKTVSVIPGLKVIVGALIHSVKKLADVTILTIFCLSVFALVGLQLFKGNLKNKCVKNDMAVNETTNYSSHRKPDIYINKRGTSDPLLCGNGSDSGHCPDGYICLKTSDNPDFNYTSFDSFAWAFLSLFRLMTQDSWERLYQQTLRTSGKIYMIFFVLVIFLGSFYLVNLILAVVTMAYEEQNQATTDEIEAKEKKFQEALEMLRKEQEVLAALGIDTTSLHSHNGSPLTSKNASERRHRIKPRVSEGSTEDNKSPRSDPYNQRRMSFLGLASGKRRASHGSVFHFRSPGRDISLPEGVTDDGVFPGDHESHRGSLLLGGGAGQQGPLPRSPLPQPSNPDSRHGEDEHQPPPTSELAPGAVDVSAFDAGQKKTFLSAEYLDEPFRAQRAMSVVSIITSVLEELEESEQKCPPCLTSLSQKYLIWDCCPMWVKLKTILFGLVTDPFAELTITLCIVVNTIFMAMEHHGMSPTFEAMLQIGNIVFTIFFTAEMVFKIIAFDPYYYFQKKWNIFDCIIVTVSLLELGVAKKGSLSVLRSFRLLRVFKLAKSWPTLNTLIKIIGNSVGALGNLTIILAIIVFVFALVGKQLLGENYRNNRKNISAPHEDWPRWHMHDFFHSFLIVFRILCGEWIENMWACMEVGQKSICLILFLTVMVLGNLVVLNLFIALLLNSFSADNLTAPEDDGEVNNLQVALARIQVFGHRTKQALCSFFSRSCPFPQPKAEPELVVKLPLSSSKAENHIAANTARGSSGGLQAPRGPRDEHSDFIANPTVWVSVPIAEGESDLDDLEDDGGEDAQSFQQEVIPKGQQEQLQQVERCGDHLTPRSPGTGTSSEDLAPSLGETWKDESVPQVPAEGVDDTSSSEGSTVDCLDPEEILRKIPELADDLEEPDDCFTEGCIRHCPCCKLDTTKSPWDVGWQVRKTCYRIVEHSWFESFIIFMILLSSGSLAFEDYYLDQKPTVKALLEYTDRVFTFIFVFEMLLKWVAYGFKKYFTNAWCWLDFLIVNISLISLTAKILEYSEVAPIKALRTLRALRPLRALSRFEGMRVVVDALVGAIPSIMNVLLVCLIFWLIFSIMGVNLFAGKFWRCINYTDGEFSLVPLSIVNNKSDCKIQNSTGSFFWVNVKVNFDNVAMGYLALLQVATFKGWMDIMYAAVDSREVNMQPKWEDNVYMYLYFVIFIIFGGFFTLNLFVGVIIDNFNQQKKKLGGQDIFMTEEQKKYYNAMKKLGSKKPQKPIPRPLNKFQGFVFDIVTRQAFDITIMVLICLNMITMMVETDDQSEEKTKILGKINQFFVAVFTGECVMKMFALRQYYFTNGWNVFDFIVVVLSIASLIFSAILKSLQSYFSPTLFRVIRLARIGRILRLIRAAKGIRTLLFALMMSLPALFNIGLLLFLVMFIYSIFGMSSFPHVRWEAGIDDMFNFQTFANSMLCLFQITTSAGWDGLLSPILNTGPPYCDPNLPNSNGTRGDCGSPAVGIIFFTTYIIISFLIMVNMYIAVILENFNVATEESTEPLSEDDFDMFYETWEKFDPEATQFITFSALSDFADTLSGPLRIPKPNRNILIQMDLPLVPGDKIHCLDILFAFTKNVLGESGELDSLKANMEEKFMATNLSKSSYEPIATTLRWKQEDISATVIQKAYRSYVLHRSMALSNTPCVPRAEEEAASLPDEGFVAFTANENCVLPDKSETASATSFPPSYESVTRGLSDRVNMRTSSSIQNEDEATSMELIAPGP
Assay Procedure: Automated whole-cell voltage-clamp (ScreenPatch 384P) on CHO cells stably expressing Nav 1.8
Condition Info: inactivation step -40 mV 8 s, test pulse 10 mV, room temperature, exposure at least five minutes, read-out: Nav1.8 IC50
Property Label: IC50

Worked examples, 8 compounds total:
- Compound String: "COc1ccc(-c2nc(C(=O)N/N=C/c3cc(C)cc(C)c3)cnc2O)cc1"
  IC50: "> 1 µM"
- Compound String: "CCOc1ccc(-c2nc(C(=O)N/N=C/c3cc(OC)cnc3F)cnc2O)cc1"
  IC50: "> 1 µM"
- Compound String: "COc1ccc(-c2cncc(C(=O)N/N=C/c3cc(C)cc(O)c3)n2)cc1"
  IC50: "0.5 to 1 µM"
- Compound String: "COc1cc(/C=N/NC(=O)c2cncc(-c3ccc(OC)cc3O)n2)cc(OC)c1"
  IC50: "< 0.5 µM"
- Compound String: "COc1ccc(-c2cncc(C(=O)N/N=C/c3ccc(O)cc3)n2)cc1"
  IC50: "> 1 µM"
- Compound String: "COc1ccc(-c2cnc(O)c(C(=O)N/N=C/c3cc(OC)cc(OC)c3)n2)cc1"
  IC50: "> 1 µM"
- Compound String: "COc1ccc(F)c(/C=N/NC(=O)c2cncc(-c3ccc(O)cc3)n2)c1"
  IC50: "> 1 µM"
- Compound String: "CCOc1ccc(-c2cncc(C(=O)N/N=C/c3cc(OC)ccc3O)n2)cc1"
  IC50: "< 0.5 µM"

Moving on to another compound below.
Bench note, UniProt:Q9Y5Y9: `CCOc1ccc(-c2cncc(C(=O)N/N=C/c3cncc(O)c3)n2)cc1` , IC50 reads > 1 µM
